System: HOP-92 NSCLC
TEST DETAILS: NCI tumour cell line growth inhibition, 48 h; in the data active = GI50 below about 0.43 µM; inactive = the rest
Just give me one of these, please: yes (active), no (inactive)

- COMPOUND STRING: "ClC1=C(Cl)C(Cl)=C(Cl)C1=Cc1ccc(Cl)cc1"
  ASSAYED SYSTEM: "HOP-92 NSCLC"
  LABEL: "no"
- COMPOUND STRING: "CNCCOc1nc2c3cnccc3cc(-c3cc(OC)c(OC)c(OC)c3)c2c2ccncc12"
  ASSAYED SYSTEM: "HOP-92 NSCLC"
  LABEL: "yes"
- COMPOUND STRING: "CC[C@H](C)[C@H](NC(=O)C12CC(NC(C)=O)(C1)C2)C(=O)N(C)[C@H](C[C@@H](OC(C)=O)c1nc(C(=O)N[C@@H](Cc2ccccc2)C[C@H](C)C(=O)OC)cs1)C(C)C"
  ASSAYED SYSTEM: "HOP-92 NSCLC"
  LABEL: "no"

Please look at the following molecule next.
Req: Hey, what did the test say about C/C(=N\Nc1cccc(Cl)n1)c1ccccn1 ?
Resp: no
